Data origin, for the record: patent US10604514B2

- Tgt: DYRK1A kinase (Homo sapiens (Human), UniProt Q13627)
- Assay method text: DYRK1A kinase assay (Ser/Thr 18 peptide Z-lyte, FRET)
pEC50: −log10 of the molar value.
Measurement name: pEC50

These recorded examples may help you get a feel for the data.
[2H]c1c([2H])c(C([2H])([2H])[2H])c([2H])c([2H])c1C(=O)Nc1cc2cc(-c3cnc(C)n3C)ccc2cn1
8.30
Cc1nnc(-c2ccc3cnc(NC(=O)C4CCN(C)CC4)cc3c2)s1
8.22
[2H]c1c([2H])c(C(=O)Nc2cc3cc(-c4cnc(C)n4C)ccc3cn2)c([2H])c([2H])c1F
8.30

P: [2H]c1c(NC(=O)C2CCNCC2)ncc2ccc(-c3cnn(C)c3)cc12
Q: CC(C)C[N+]1(CC(C)C)CCC(C(=O)Nc2cc3cc(-c4cnn(C)c4)ccc3cn2)CC1
Pick one: P or Q . Which has the bigger pEC50 number? // return label of chosen record P

###

- Tgt: GSK3β kinase (Homo sapiens (Human), UniProt P49841)
- Sequence (P49841 whole entry): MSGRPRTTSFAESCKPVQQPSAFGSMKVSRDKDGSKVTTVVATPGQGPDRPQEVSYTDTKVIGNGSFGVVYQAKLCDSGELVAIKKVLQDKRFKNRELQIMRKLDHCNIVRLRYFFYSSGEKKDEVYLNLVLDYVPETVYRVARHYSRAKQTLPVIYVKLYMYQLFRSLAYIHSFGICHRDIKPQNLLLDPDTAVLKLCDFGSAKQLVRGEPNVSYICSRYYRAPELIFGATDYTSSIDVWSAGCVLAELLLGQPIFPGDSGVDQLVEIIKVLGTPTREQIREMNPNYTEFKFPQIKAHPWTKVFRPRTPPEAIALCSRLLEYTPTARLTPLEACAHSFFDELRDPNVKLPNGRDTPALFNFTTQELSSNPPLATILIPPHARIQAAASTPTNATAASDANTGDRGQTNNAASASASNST
- Assay method text: GSK3β kinase assay (Ser/Thr 09 peptide Z-lyte, FRET);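 note: Coumarin/fluorescein emission ratio converted to percent phosphorylation against unphosphorylated (0%) and phosphorylated (100%) controls, 1 h compound incubation at room temperature, 11-point threefold dilutions from 10 µM, run in duplicate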
- Run parameters: method text calls the value IC50
Measurement name: EC50 (nM)

These recorded examples may help you get a feel for the data.
Cc1nnc(-c2ccc3cnc(NC(=O)N4CCOCC4)cc3c2)s1
79
[2H]c1c([2H])c([2H])c(/C=C/C(=O)Nc2cc3cc(-c4cnc(C)n4C)ccc3cn2)c([2H])c1[2H]
388

P: [2H]C([2H])([2H])c1ccc(C(=O)Nc2cc3cc(-c4cncn4C)ccc3cn2)cc1
Q: CN[C@H]1CC[C@H](C(=O)Nc2cc3cc(-c4cnc(C)o4)ccc3cn2)CC1
R: Cc1nnc(-c2ccc3cnc(NC(=O)C4CCN(CCC(F)(F)F)CC4)cc3c2)s1
S: [2H]c1c([2H])c(C([2H])([2H])[2H])c([2H])c([2H])c1C(=O)Nc1cc2cc(-c3cnc(C)n3C)ccc2cn1
Rank ascending by EC50. List the labels, following the order given in the request. R, Q, P, S
(R: 9 nM, Q: 122 nM, P: 1050 nM, S: 4270 nM)

###

- Tgt: DYRK1A kinase (Homo sapiens (Human), UniProt Q13627)
- Assay method text: DYRK1A kinase assay (Ser/Thr 18 peptide Z-lyte, FRET)
pEC50: −log10 of the molar value.
Measurement name: pEC50

a: [2H]c1c([2H])c(C(=O)Nc2cc3cc(-c4cncn4C)ccc3cn2)c([2H])c([2H])c1C
b: [2H]c1c([2H])c(C(=O)Nc2cc3cc(-c4cnc(C)n4C)ccc3cn2)c([2H])c([2H])c1Cl
Pick one: a or b . Which has the bigger pEC50 number? // return label of chosen record a

###

- System: Tau phosphorylation at Ser396 (pSer396), SH-SY5Y cells
- Assay method text: Tau phosphorylation at Ser396 (pSer396) in SH-SY5Y cells, ELISA/western blot;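 note: cell lysates probed for reduced Tau pSer396 via ELISA (colorimetric) or western blot (chemiluminescence), both with one shared pSer396 antibody, EC50 for lowering phosphorylation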
- Format: cell-based, human
- Run parameters: Homo sapiens; SH-SY5Y cells, overnight (16-18 h); read-out: pSer396 Tau EC50
Measurement name: EC50 (nM)

[2H]c1c(NC(=O)C2CCNCC2)ncc2ccc(-c3cnn(C)c3)cc12 [Compound 5]
511
Cn1cnnc1-c1ccc2cnc(NC(=O)CN3CCOCC3)cc2c1 [Compound 14]
382
Cc1nnc(-c2ccc3cnc(NC(=O)N4CCC(NC(CF)CF)CC4)cc3c2)s1 [Compound 121]
953
COC1CCN(CC(=O)Nc2cc3cc(-c4cnc(C)o4)ccc3cn2)CC1 [Compound 48]
359

I: Cn1cc(-c2ccc3cnc(NC(=O)N4CCOCC4)cc3c2)nn1 [Compound 60]
II: CCCCN1CCC(C(=O)Nc2cc3cc(-c4cnn(C)c4)ccc3cn2)CC1 [Compound 169]
Please let me know which one, I or II , has a lower measured EC50 value. // return label of chosen record II
